Record form. Attribute: TGI. Fill in for each entry.
System: OVCAR-8 ovarian
ASSAY SUMMARY: NCI tumour cell line growth inhibition, 48 h

> print(dat)
                                   compound  metric.name  obs.value
1  O=C1c2ccccc2C(=O)N1CCn1nc(-c2ccccc2)cc(-c2ccccc2)c1=O          TGI   > 100 µM
2  Cc1nn(-c2ccccc2)c(-n2ccnc2)c1/C=N/Nc1nc(-c2ccc(Cl)c(Cl)c2)cs1          TGI    22.3 µM
3  CC1CCC(C(C)C2C(O)CC3C4CC=C5CC(O)CCC5(C)C4CCC32C)NC1 (configuration not stated)          TGI    29.3 µM
4  CC[N+](C)(CC)CCNC(=O)C(O)(c1ccccc1)c1ccccc1          TGI   > 100 µM
5  COc1ccc2c(c1)O[C@@H]1[C@@H](OC3OC(CO)C(O)C(O)C3O)Oc3cc(OC)c(OC)cc3[C@]1(O)C2=O (some centres not stated)          TGI   > 100 µM

// each listed compound needs a value for TGI
1. CC(=O)/C=C/CCC(=O)/C=C/C(=O)OC(CCC(=O)/C=C/C(=O)O)CC(C)=O (configuration not stated)
2. C[C@H](CCC(=O)O)[C@H]1CC[C@H]2[C@@H]3[C@@H](O)C[C@@H]4C[C@H](O)CC[C@]4(C)[C@H]3CC[C@]12C

// result
1. > 100 µM
2. > 100 µM
